measured-on: KRAS WT (Homo sapiens (Human), UniProt P01116+P62937)
Sequence (P01116-2 other isoform, or with tags, fused parts or gaps): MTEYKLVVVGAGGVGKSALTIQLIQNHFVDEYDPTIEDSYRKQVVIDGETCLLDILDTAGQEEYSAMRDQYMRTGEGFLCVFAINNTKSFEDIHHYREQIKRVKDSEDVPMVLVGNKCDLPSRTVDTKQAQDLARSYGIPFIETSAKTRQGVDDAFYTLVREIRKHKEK
Sequence (P62937 whole entry): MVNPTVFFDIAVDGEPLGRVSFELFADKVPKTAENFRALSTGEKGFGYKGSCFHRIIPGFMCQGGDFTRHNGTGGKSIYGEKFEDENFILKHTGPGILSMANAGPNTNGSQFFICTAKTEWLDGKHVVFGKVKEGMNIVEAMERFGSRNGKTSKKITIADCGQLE
protocol-description: Ras-Raf (BRAF RBD) disruption / FRET / MOA assay, KRAS WT
Assay type: biochemical
condition-summary: read-out: IC50* KRAS WT FRET data
pIC50: −log10 of the molar value.
measured-attribute: pIC50

- compound: "CCn1c(-c2cccnc2[C@H](C)OC)c2c3cc(ccc31)-c1cccc(c1)C[C@H](NC(=O)[C@H](C(C)C)N1CC[C@]3(CCN(C(=O)C#C[C@@H]4COCCN4C)C3)C1=O)C(=O)N1CCC[C@H](N1)C(=O)OCC(C)(C)C2 (atropisomer, axis not shown) [Example A569]"
  pIC50: "7.00 to 8.00"

Then there is this compound:
Lookup: Query: pIC50; subject: C=CC(=O)N1CC[C@H](C(=O)N(C)[C@H](C(=O)N[C@H]2C[C@H]3CN(CCO3)c3ccc4c(c3)c(c(-c3cccnc3COC)n4CC)CC(C)(C)COC(=O)[C@@H]3CCCN(N3)C2=O)C(C)C)C1 [Example A240]
Found: < 5.00

Hey, just so you know, these numbers are from patent US11566007B2.
